The measurements presented in this section are drawn from paper PMC7732020.

The following molecules each carry a recorded CC50 for human PBM cells.

{"MOLECULE": "Cc1cn([C@H]2C[C@H](N=[N+]=[N-])[C@@H](CO)O2)c(=O)[nH]c1=O [AZT, reference compound]", "CC50": "> 100 µM"}
{"MOLECULE": "Nc1nc(Cl)nc2c1ncn2[C@@H]1O[C@H](CO)[C@@H](F)[C@@H]1F [Compound 22]", "CC50": "13.6 µM"}
{"MOLECULE": "Nc1ncnc2c1ncn2[C@@H]1O[C@H](CO)[C@@H](F)[C@@H]1F [Compound 20]", "CC50": "> 100 µM"}

----------
Listing of recorded CC50 by entry.
# System: Huh-7 Replicon cells
# EXPERIMENT NOTES: Toxicity in Huh-7 Replicon cells
# EXPERIMENTAL CONTEXT: read-out: CC50 (toxicity in Huh-7 Replicon cells); replicon assay Huh7 cells
METRIC NAME: CC50

{"MOLECULE": "Nc1ncnc2c1ncn2[C@@H]1O[C@H](CO)[C@@H](F)[C@@H]1F", "METRIC NAME": "CC50", "TEST VALUE": "> 10 µM"}
{"MOLECULE": "Nc1nc(Cl)nc2c1ncn2[C@@H]1O[C@H](CO)[C@@H](F)[C@@H]1F", "METRIC NAME": "CC50", "TEST VALUE": "> 10 µM"}
{"MOLECULE": "C[C@@]1(O)[C@H](O)[C@@H](CO)O[C@H]1n1ccc(N)nc1=O [Compound 2-C-Me-C, reference compound]", "METRIC NAME": "CC50", "TEST VALUE": "> 10 µM"}

----------
Quick note: these are CC50 numbers for system: Vero cells
METRIC NAME: CC50

{"COMPOUND": "Cc1cn([C@H]2C[C@H](N=[N+]=[N-])[C@@H](CO)O2)c(=O)[nH]c1=O [AZT, reference compound]", "TEST VALUE": "56 µM"}
{"COMPOUND": "Nc1nc(Cl)nc2c1ncn2[C@@H]1O[C@H](CO)[C@@H](F)[C@@H]1F", "TEST VALUE": "> 100 µM"}
{"COMPOUND": "Nc1ncnc2c1ncn2[C@@H]1O[C@H](CO)[C@@H](F)[C@@H]1F", "TEST VALUE": "> 100 µM"}
